# Tested target: mutant G2019S LRRK2 (Homo sapiens (Human), UniProt Q5S007, G2019S)
# Sequence (Q5S007 whole entry G2019S): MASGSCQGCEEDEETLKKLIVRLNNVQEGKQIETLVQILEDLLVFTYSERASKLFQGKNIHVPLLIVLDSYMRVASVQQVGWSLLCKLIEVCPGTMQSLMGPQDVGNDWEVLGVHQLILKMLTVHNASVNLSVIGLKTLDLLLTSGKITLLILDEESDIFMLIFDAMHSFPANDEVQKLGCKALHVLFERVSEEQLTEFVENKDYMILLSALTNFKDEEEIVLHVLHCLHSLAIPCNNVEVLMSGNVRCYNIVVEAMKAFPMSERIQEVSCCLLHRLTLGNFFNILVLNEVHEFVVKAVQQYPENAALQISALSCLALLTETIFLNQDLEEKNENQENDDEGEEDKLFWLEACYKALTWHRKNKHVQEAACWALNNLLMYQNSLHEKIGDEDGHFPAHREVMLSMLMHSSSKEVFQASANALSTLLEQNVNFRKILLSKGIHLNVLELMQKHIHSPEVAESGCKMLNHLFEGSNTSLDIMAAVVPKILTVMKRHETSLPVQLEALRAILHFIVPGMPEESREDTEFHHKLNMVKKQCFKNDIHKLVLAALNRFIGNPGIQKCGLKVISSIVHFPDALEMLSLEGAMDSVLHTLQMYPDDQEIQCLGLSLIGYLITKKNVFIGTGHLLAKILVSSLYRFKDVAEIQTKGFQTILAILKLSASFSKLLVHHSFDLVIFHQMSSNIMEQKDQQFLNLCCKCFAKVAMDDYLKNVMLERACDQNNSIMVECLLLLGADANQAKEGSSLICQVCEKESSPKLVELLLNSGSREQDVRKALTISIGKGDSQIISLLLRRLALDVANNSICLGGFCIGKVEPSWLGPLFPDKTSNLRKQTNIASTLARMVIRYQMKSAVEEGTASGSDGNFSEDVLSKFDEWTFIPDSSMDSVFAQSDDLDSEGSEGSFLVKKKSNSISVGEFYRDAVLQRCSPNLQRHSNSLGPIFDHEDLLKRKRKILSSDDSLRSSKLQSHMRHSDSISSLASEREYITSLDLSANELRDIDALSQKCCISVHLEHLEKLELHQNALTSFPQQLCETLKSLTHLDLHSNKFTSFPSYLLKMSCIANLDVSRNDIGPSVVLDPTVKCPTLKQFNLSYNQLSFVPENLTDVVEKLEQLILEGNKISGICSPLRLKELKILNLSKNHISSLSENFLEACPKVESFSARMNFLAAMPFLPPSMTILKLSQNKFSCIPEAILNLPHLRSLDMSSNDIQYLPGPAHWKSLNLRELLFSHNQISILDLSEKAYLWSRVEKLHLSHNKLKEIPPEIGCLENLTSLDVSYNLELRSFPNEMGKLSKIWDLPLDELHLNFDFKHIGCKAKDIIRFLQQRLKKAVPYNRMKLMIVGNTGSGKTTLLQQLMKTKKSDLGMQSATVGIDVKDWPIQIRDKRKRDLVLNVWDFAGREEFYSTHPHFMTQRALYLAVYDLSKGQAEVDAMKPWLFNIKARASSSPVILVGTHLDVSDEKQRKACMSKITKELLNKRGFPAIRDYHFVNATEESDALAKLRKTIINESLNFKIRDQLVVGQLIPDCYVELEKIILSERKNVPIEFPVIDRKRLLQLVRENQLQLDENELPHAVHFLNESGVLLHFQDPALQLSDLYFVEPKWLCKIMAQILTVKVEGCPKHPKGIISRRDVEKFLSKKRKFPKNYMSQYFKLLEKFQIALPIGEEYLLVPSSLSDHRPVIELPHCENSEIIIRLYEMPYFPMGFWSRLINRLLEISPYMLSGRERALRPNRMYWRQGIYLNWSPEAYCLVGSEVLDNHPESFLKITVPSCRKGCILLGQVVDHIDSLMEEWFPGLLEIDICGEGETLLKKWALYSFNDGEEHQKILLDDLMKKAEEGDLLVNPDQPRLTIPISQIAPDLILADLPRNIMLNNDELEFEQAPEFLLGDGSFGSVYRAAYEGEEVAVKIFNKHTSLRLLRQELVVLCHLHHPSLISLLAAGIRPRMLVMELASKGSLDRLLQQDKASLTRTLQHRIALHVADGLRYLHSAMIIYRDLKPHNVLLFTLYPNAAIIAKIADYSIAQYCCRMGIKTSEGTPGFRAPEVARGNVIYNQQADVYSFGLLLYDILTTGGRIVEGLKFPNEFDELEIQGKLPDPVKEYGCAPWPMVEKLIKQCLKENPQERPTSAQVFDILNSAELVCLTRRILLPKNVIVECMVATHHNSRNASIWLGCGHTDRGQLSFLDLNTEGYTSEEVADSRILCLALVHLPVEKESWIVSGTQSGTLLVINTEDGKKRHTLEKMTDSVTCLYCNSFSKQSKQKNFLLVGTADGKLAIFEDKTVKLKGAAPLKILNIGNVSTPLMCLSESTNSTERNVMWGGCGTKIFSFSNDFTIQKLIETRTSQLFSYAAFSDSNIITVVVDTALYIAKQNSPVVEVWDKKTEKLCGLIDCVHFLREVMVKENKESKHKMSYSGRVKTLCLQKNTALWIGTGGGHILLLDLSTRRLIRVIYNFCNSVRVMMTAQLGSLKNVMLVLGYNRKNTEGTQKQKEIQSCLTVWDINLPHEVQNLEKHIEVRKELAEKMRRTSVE
# Assay text: LRRK2 kinase assay (LanthaScreen), G2019S mutant
# Format: biochemical
# Condition description: G2019S mutant LRRK2; LanthaScreen, LRRKtide substrate; read-out: LRRK2, G2019S IC50
// class assignment uses IC50 with these ranges: low = under 6 nM, middle = from 6 nM up to 9 nM, high = 9 nM and over

Q) Dear colleague, I would appreciate it if you could identify the bin for CN1CC(n2c(Cc3ncn(C)n3)nc3cnc4ccc(Cl)cc4c32)C(F)(F)C1 (stereo not drawn) and reply at your convenience.
A) high

Q) Dear colleague, I would appreciate it if you could identify the bin for Cc1cnc(Cc2nc3cnc4ccc(Cl)cc4c3n2[C@@H]2CC[C@H](F)C2)cn1 (relative stereo) and reply at your convenience.
A) high

Q) Dear colleague, I would appreciate it if you could identify the bin for Cc1cnc(C(O)c2nc3cnc4ccc(Cl)cc4c3n2[C@@H]2CCO[C@H](C)C2)cn1 (single isomer, unassigned) [Example 14] and reply at your convenience.
A) high

Q) Dear colleague, I would appreciate it if you could identify the bin for C[C@@H]1C[C@H](n2c(Cc3nccs3)nc3cnc4ccc(F)cc4c32)CCO1 and reply at your convenience.
A) middle

Q) Dear colleague, I would appreciate it if you could identify the bin for Cc1nnc(Cc2nc3cnc4ccc(C#N)cc4c3n2[C@@H]2CCN(C)C2)s1 and reply at your convenience.
A) high

Q) Dear colleague, I would appreciate it if you could identify the bin for Cc1nnc(Cc2nc3cnc4ccc(C(F)(F)F)cc4c3n2[C@@H]2CCO[C@H](C)C2)o1 and reply at your convenience.
A) middle

Q) Dear colleague, I would appreciate it if you could identify the bin for CC(C#N)Cc1nc2cnc3ccc(Cl)cc3c2n1[C@@H]1CCO[C@H](C)C1 (stereo partly drawn) and reply at your convenience.
A) high

Q) Dear colleague, I would appreciate it if you could identify the bin for COCc1cn(Cc2nc3cnc4ccc(Cl)cc4c3n2C2CCOCC2(F)F)nn1 (stereo not drawn) and reply at your convenience.
A) middle

Q) Dear colleague, I would appreciate it if you could identify the bin for C[C@@H]1C[C@H](n2c(CCC#N)nc3cnc4ccc(Cl)cc4c32)CCO1 and reply at your convenience.
A) high

Q) Dear colleague, I would appreciate it if you could identify the bin for CN1CC(n2c(Cn3cc(C4CC4)nn3)nc3cnc4ccc(Cl)cc4c32)C(F)(F)C1 (stereo not drawn) and reply at your convenience.
A) low

Q) Dear colleague, I would appreciate it if you could identify the bin for FC1(F)COCCC1n1c(Cn2cc(C3CC3)nn2)nc2cnc3ccc(Cl)cc3c21 (stereo not drawn) and reply at your convenience.
A) middle

Q) Dear colleague, I would appreciate it if you could identify the bin for Cc1cn(Cc2nc3cnc4ccc(C(F)F)cc4c3n2[C@@H]2CCO[C@H](C)C2)nn1 and reply at your convenience.
A) middle

Q) Dear colleague, I would appreciate it if you could identify the bin for COCc1cn(Cc2nc3cnc4ccc(F)cc4c3n2C2CN(C)CC2(F)F)nn1 (stereo not drawn) and reply at your convenience.
A) middle

Q) Dear colleague, I would appreciate it if you could identify the bin for Cc1nc(Cc2nc3cnc4ccc(C#N)cc4c3n2[C@@H]2CCN(CC(F)(F)F)C2)no1 and reply at your convenience.
A) middle

Q) Dear colleague, I would appreciate it if you could identify the bin for Cc1cc(Cc2nc3cnc4ccc(Cl)cc4c3n2C2CN(C)CC2(F)F)no1 (stereo not drawn) [Example 51] and reply at your convenience.
A) low

Q) Dear colleague, I would appreciate it if you could identify the bin for C[C@@H]1C[C@H](n2c(Cc3cnc(C(F)(F)F)cn3)nc3cnc4ccc(C#N)cc4c32)CCO1 and reply at your convenience.
A) high

Q) Dear colleague, I would appreciate it if you could identify the bin for Cc1nnc(Cc2nc3cnc4ccc(Cl)cc4c3n2C2CCOCC2(F)F)s1 (stereo not drawn) and reply at your convenience.
A) middle

Q) Dear colleague, I would appreciate it if you could identify the bin for Cc1nc2cnc3ccc(Cl)cc3c2n1C1CCOC(CC#N)C1 (stereo not drawn) and reply at your convenience.
A) middle

Q) Dear colleague, I would appreciate it if you could identify the bin for Cc1cn(Cc2nc3cnc4ccc(Cl)cc4c3n2C2CN(C)CC2(F)F)nn1 (stereo not drawn) [Example 48] and reply at your convenience.
A) low

Q) Dear colleague, I would appreciate it if you could identify the bin for Cc1cn(Cc2nc3cnc4ccc(Cl)cc4c3n2C2CN(C)CC2(F)F)nn1 (stereo not drawn) [Example 82] and reply at your convenience.
A) low

Q) Dear colleague, I would appreciate it if you could identify the bin for C[C@@H]1C[C@H](n2c(Cc3nccs3)nc3cnc4ccc(C#N)cc4c32)CCO1 and reply at your convenience.
A) low

Q) Dear colleague, I would appreciate it if you could identify the bin for Cc1cc(Cc2nc3cnc4ccc(Cl)cc4c3n2C2CCOC(C(F)F)C2)no1 (stereo not drawn) and reply at your convenience.
A) middle

Q) Dear colleague, I would appreciate it if you could identify the bin for Cc1nnc(Cc2nc3cnc4ccc(C(F)(F)F)cc4c3n2[C@@H]2CCO[C@H](C)C2)s1 and reply at your convenience.
A) high

Q) Dear colleague, I would appreciate it if you could identify the bin for Cc1nc(Cc2nc3cnc4ccc(Cl)cc4c3n2C2CCOCC2(F)F)no1 (stereo not drawn) and reply at your convenience.
A) high

Q) Dear colleague, I would appreciate it if you could identify the bin for Fc1ccc2ncc3nc(Cc4csnn4)n(C4CCC(F)C4)c3c2c1 (stereo not drawn) and reply at your convenience.
A) high

Q) Dear colleague, I would appreciate it if you could identify the bin for Cc1nn2cc(Cc3nc4cnc5ccc(F)cc5c4n3[C@@H]3CCO[C@H](C)C3)nc2s1 and reply at your convenience.
A) low

Q) Dear colleague, I would appreciate it if you could identify the bin for Cc1cnc(Cc2nc3cnc4ccc(C(F)(F)F)cc4c3n2[C@@H]2CCO[C@H](C)C2)cn1 and reply at your convenience.
A) low

Q) Dear colleague, I would appreciate it if you could identify the bin for Cc1cnn(Cc2nc3cnc4ccc(C#N)cc4c3n2C2CN(C)CC2(F)F)n1 (single isomer, unassigned) and reply at your convenience.
A) low

Q) Dear colleague, I would appreciate it if you could identify the bin for N#Cc1ccc2ncc3nc(Cc4nc5ccccc5o4)n([C@@H]4CC[C@H](F)C4)c3c2c1 (relative stereo) and reply at your convenience.
A) middle

Provenance of the data: patent US11312713B2
